Give IC50 for every item shown.
# target: human PRMT6 (Homo sapiens)
# Construct: Flag-PRMT6-His; made in house; host or cells: HEK 293F cells (BacMam baculovirus, pFastBacMam)
# Sequence (Q96LA8 with tags, fused parts or gaps): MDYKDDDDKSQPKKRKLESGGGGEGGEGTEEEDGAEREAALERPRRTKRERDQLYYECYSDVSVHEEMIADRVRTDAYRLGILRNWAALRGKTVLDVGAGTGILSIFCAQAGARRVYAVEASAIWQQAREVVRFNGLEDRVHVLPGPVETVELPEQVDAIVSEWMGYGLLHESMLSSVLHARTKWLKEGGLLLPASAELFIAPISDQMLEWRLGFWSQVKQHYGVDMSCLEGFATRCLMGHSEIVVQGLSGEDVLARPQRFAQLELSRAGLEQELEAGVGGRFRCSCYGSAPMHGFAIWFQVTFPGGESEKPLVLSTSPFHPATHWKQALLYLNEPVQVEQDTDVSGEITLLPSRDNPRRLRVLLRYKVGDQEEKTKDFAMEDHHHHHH
# experimental_protocol: PRMT6 Biochemical Assay
# assay_context: PRMT6 IC50 (uM)
Give bare numbers, in µM.

Below are worked cases with known answers.
{"columns": ["compound", "IC50 (µM)"],
 "data": [
  ["CNCCN(C)Cc1c[nH]nc1-c1cc(CC(F)(F)F)cc(OCCOC)c1", 1.27],
  ["CNCCN(C)Cc1c[nH]nc1-c1cc(Cl)c(OCC(C)C)c(Cl)c1", 0.0104],
  ["CCC(CC)Oc1ccc(-n2nccc2CN(C)CCNC)cc1", 0.0678],
  ["CNCCN(C)Cc1c[nH]nc1-c1ccc(N(C)CC(C)C)cc1", 0.236],
  ["CNCCN(C)Cc1c[nH]nc1-c1cc(F)c(OCC2CCOCC2)c(C(F)(F)F)c1", 0.0184],
  ["CNCCN(C)Cc1c[nH]nc1-c1ccc(N2CCCC2)nc1", 0.0395]
]}

Provide each entry's IC50 from the list below.
1. CCC(CC)Oc1ccc(-n2nc(C)cc2CN(C)CCNC)cc1
2. CNCCN(C)Cc1c[nH]nc1-c1cc(C)c(OCC2CC2)c(C(F)(F)F)c1
3. CNCCN(C)Cc1c[nH]nc1-c1cc(OCC2CCOC2)cc(C(F)(F)F)c1 (centres unmarked)
4. CNCCN(C)Cc1c[nH]nc1-c1ccc(C#N)cc1
5. CNCCN(C)Cc1cnn(CCOC)c1-c1ccc(OC(C)C)cc1

[0.136, 0.0326, 2.9, 0.027, 0.106]

# credit: patent US20190077795A1
